inhibition at 1 µM overview
# target.entity: FAAH (Mus musculus, UniProt O08914)
# Construct: Proteomes (mouse brain membrane fraction or cell lysates); from tissue; host or cells: mouse brain membrane fraction (or cell lysates, not specified)
# Sequence (O08914 whole entry): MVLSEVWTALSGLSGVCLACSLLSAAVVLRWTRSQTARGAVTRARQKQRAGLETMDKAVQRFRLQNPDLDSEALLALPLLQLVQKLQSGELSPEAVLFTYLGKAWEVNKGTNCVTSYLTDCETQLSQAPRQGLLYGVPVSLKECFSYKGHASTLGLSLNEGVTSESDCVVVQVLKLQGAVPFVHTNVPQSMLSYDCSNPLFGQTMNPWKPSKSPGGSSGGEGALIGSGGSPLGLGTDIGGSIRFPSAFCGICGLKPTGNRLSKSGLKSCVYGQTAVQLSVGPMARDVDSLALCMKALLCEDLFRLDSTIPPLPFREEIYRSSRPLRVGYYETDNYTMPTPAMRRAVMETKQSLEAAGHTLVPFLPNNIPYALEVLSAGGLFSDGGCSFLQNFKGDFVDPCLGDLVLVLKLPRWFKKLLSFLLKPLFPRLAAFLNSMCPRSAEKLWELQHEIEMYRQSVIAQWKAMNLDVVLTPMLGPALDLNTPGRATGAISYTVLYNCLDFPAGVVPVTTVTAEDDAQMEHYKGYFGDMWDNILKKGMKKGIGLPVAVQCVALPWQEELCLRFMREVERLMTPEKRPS
# method.notes: In vitro competitive activity-based protein profiling (gel-based, FP-Rh or HT-01 probe)
# Assay type: biochemical
# conditions: 1 μM inhibitor; read-out: % Inhibition at 1 μM, B = FAAH

The following molecules have reported results that may help.
N#Cc1cnn(C(=O)N2CCCCC2)c1 [Example 3]; > 75%
CS(=O)(=O)N1CCN(C(=O)n2cc(C(F)(F)F)cn2)CC1 [Example 150]; < 25%
CN(CCN(C)C(=O)n1cc(Cl)cn1)C(=O)c1ccccc1 [Example 194]; 25 to 75%
CCN(Cc1cccc(Cl)c1)C(=O)n1cc(C(F)(F)F)cn1 [Example 244]; > 75%
CCN(Cc1cccc(Cl)c1)C(=O)n1cc(C#N)cn1 [Example 243]; > 75%
O=C(N1CCN(C(c2ccc3c(c2)COC3)c2ccc3c(c2)COC3)CC1)n1cc(Cl)cn1 [Example 95]; < 25%

Assign inhibition at 1 µM to the following record: CCN(Cc1cccc(Cl)c1)C(=O)n1cc(Cl)cn1 [Example 134] > 75%

Give the reported value of inhibition at 1 µM for this record: O=C(N1CCCN(Cc2ccccc2)CC1)n1cc(Cl)cn1 [Example 191] > 75%

Return inhibition at 1 µM for the following molecule: O=C(c1cnn(C(=O)N2CCN(C(c3ccc(Cl)cc3)c3ccc(Cl)cc3)CC2)c1)N1CCOCC1 [Example 67] < 25%

Return the recorded inhibition at 1 µM value; entry: O=C(N1CCN(Cc2ccc(N3CCOCC3)cc2)CC1)n1cc(Cl)cn1 [Example 217] > 75%

Return inhibition at 1 µM for the following molecule: O=C(N1CCN(Cc2ccccc2)CC1)n1cccn1 [Example 7] < 25%
